tested on: Glycine max; assay: Inhibition of soybean lipoxygenase assessed as conversion of sodium linoleate to 13-hydroperoxylinoleic acid at 0.1 mM
Endpoint label: inhibition (%)
Reply numerically in %, unit not repeated.

Below: 3 molecules and their reported inhibition.
O=c1ccc2ccc3c(c2o1)CCCC3 | 4
COC(=O)c1cc(=O)oc2cc3c(cc12)CCCC3 | 78
COC(=O)c1cc(=O)oc2cc3c(cc12)OCO3 | 0

Data request, read-out inhibition, for COC(=O)c1cc(=O)oc2c3c(ccc12)OC(C)(C)C3
4

If you can, please state the reported inhibition value of COC(=O)c1cc(=O)oc2ccc3c(c12)CCCC3 .
31

Consider the molecule COC(=O)c1cc(=O)oc2cc3c(cc12)CCC3 and give its measured inhibition.
10
